FYI, the data here is from PubChem BioAssay (NCI).

- Test system: HS 578T breast
- method_notes: NCI-60 one-dose screen, 48 h (100 = growth as untreated, 0 = no growth, -100 = all killed)
- condition_info: 10 µM
Compounds without any hit were thinned out: in the full panel of roughly 83,000, 20% have a hit.
Class key for growth values: low = under 60%, intermediate = from 60% up to 90%, high = 90% and over

Lab note: which band did CN1CCN(CCCn2c(=O)c3sc4ncccc4c3n3nnc(-c4ccccc4)c23)CC1 land in?
low

Lab note: which band did O=C1c2ccccc2C(=O)N1CCCCNc1ccccc1 land in?
high

Lab note: which band did O=S(=O)(O)c1ccc(Cl)cc1 land in?
high

Lab note: which band did C[N+]1(CCCCC[N+]2(C)CCCC2)CCCC1 land in?
high

Lab note: which band did CCN(CC)CCOc1cccc2c1C(=O)c1cccc(OCCN(CC)CC)c1C2=O land in?
intermediate
